These data points were gathered from paper PMC12608155.

Test: Cytotoxicity in HepG2 cells (alamarBlue, 72 h)
Details: human, HepG2 hepatoma cells
For each record, write down the corresponding CC50 at 72 h.

COc1ccc2cc3[n+](cc2c1OC)CCc1cc2c(cc1-3)OCO2 | > 20 µM
COc1ccc2c(c1OC)CN(C)c1c-2ccc2cc3c(cc12)OCO3 [Dihydrochelerythrine] | > 50 µM

We now examine a further molecule.
Asked: If you can, please state the reported CC50 at 72 h value of COc1cc2c(cc1OC)-c1c(C)c3ccc(OC)c(OC)c3c[n+]1CC2 [Dehydrocorydaline] .
Given back: > 10 µM
